# ASSAY: soluble on expression in E. coli; label from the status in PepcDB or PDB records
TEST READOUT: soluble on expression in E. coli

Solved entries (count: 4):
{"SEQUENCE RECORD": "MGSSHHHHHHSSGLVPRGSHMPLYYRSIIEEHMAVRKHVGIFDVSHMGDVTVSGKDASAFLDHMFPTKVSNLKNGECVYTAFLNDSGLMIDDTIVYRMGEDSYFFVPNAGTTEKIYRWVSDHSAGYSVKIENVSNRISSIALQGPESEEVLNELGFSYPGYFKFQYVSGKYMNAITGKDQIIISGTGYTGEKGVEFIIPNEHAVELWKKLLEAINKRNGLPAGLGARDTLRMEKGMLLSGHDFNEDRDPYEASVSFIVNNDEDFVGKKNLEIRRRSDHEIFRGFVLSDGIPRNGNPIKAGGKRVGTVTSGTISPVLNKGIALGYIDKAYSKENTEVMIEIRSVDHKAVVTKPRIVK", "soluble on expression in E. coli": "soluble"}
{"SEQUENCE RECORD": "MGSDKIHHHHHHMRTYTKEIQAIIDNVEKVIIGKENVITQSLAALLAGGHVLLEDVPGVGKTMLVRAFSRSIGLTFKRVQFTPDLLPSDLTGVSMYNQKTSQFEYRPGPLMGNIVLADEINRTSPKTQSALLEGMAEANVTVDGEIHTLPNPFFVMATQNPIEHEGTYPLPEAQLDRFLIKVKMGYPDFQQEMKLLTRFERDEPIETLESVITRDELLRMKEDVKAVHVSQPVKKYIVHLVQATRTHASLYLGASPRSSIALMKVAQAWAYMEGRSFVLPDDVKELLTPVLSHRLILTADARYHGQTAERILEQVKKEVAVPIQQDVESL", "soluble on expression in E. coli": "not soluble"}
{"SEQUENCE RECORD": "MTTVLLDSHVAYWWSAEPQRLSMAASQAIEHADELAVAAISWFELAWLAEQERIQLAIPVLSWLQQLAEHVRTVGITPSVAATAVALPSSFPGDPADRLIYATAIEHGWRLVTKDRRLRSHRHPRPVTVW", "soluble on expression in E. coli": "soluble"}
{"SEQUENCE RECORD": "MIEFRNVSKVYPNGTKGLNNINLKIQKGEFVVMVGLSGAGKSTLLRSVNRLHEITEGEIMIEGESITAAKGKGLRRMRRDIGMIFQSFNLVKRSTVLKNVLAGRVGYHSTLRTTLGLFPKEDLELAFQSLKRVNILEKAYARADELSGGQQQRVSIARALAQEAKIILADEPVASLDPLTTKQVLEDLKKINEDFGITTIVNLHSIDLARQYATRIIGLHAGEIVFDGLVEEATDEKFAEIYGDVVQKSELLEVAVK", "soluble on expression in E. coli": "not soluble"}

Value of soluble on expression in E. coli reported for the sequence `MSSRVPILKVDDYWVVAIEETLHDQSVIQFKEELLHNITGVAGKGLVIDISALEVVDSFVTRVLIEISRLAELLGLPFVLTGIKPAVAITLTEMGLDLRGMATALNLQKGLDKLKNLARMEQR` is soluble

Value of soluble on expression in E. coli reported for the sequence `MKKINAIILLSSLTSASVFAGAYVENREAYNLASDQGEVMLRVGYNFDMGAGIMLTNTYNFQREDELKHGYNEIEGWYPLFKPTDKLTIQPGGLINDKSIGSGGAVYLDVNYKFVPWFNLTVRNRYNHNNYSSTDLSGELDNNDTYEIGTYWNFKITDKFSYTFEPHYFMRVNDFNSSNGKDHHWEITNTFRYRINEHWLPYFELRWLDRNVEPYHREQNQIRIGTKYFF` is soluble

Value of soluble on expression in E. coli reported for the sequence `MLLDSIFFRTHPDWIVCCRFLQGVGTDREKREENGRKKTVKITIFSDCMLWANPISLCIRHRAVFNNRNLRMDFSSYTILCLNRLDAWIPAFGIPK` is not soluble

Value of soluble on expression in E. coli reported for the sequence `MSLRHDFVFSGVIMLELNAKTTALVVIDLQEGILPFAGGPHTADEVVNRAGKLAAKFRASGQPVFLVRVGWSADYAEALKQPVDAPSPAKVLPENWWQHPAALGATDSDIEIIKRQWGAFYGTDLELQLRRRGIDTIVLCGISTNIGVESTARNAWELGFNLVIAEDACSAASAEQHNNSINHIYPRIARVRSVEEILNALEGGSHHHHHH` is soluble

Value of soluble on expression in E. coli reported for the sequence `MGSDKIHHHHHHMSDSIYSIGTQGQPWTDEDKDLWLSKQVIKRSYQDEVLSKFESVTSSFDMIQYGSLSIDESRYPLYAMRSKNWQSKNKTVLVTGGVHGYETSGVQGAIRFLETSAKDFSQRFNIIVVPCVSPWGYETINRWNNEAIDPNRSFYLDSPAQESAALMSFINELDVNIAMHIDLHETTDTDNSEFRPALAARDAIEQKNWNIPDGFYLVGDSTKPAADFQGAINQAVAKVTHIAPEDSNGKLIGVDIEQFGVINYAGRELGLCMGLTDAPYVTTTEVYPDSPLVDDENCITAQVAAISAAITFI` is not soluble

Value of soluble on expression in E. coli reported for the sequence `MGSDKIHHHHHHMIFTLPNTTTQEIAKTLVKIRDTGGQVTTSRVLTLIVVARDTSDVEGIIRATNEASQEHPSRVIILVAGSHEGESQVDAEVRIGGDAGASEMILIKLAGRVAKHLVHVVTPLLLPDTPIVAWWPSSAPINPAEDPIGKIAQRRITDSHFDPPVDALYNRRNHYAPGDSDFSWARLTPWRGVLASSLDQAPYEMVQDVRVYGESDCPSVDLAAGWLCERLGISVERHNYGSGSAAFDDAGLAKIPVKRIELERPSGCVVIEALDDDQTLSVSIPGRSTAHVAVTRRSQADCLAEELRHLDPDIAYARALRGLSRVSYPTQ` is not soluble

Value of soluble on expression in E. coli reported for the sequence `MLTIHTKLISAMITQSLKDHPIETCGIIAGLAGSNLPLRLIPMRNVAQSENFFMFDPQQQLQVWKEMSARHEEPVVIYHSHTGSEAYPSRSDVELAAEPQAHYVIIPTCSPHKEEIRSFRIVDQMVIEERVQIVRQYQPELEFQMMVALEHHHHHH` is not soluble

Value of soluble on expression in E. coli reported for the sequence `MAHHHHHHMPRSEKQSEEDDWELHPLFLSKIPNKKDINKNQALSALITLINEEEEKEVFSYEPRRKNLKKKITEKGQIIYKKDRRNFYEPYQQNKNDKINYFEKKTLGGHSDVSKEEEVMDVEVDEEGTPLTAAQQGGDHSGQNVSSSQQATDETSIGEVLVCLSMINLK` is not soluble

====

# ASSAY: soluble on expression in E. coli; label from the status in PepcDB or PDB records
TEST READOUT: soluble on expression in E. coli

Solved entries (count: 4):
{"SEQUENCE RECORD": "GPGSMSTSAYRVASLLRQENNKLCSDKEKNTLARLTRDVEAFLDHAADVPPVVMETPYDDGETDLMEVHLSVVAGVLEPCEPASDVTAVDGVFMPTAKNHVAMDRKRVREAQAMLNLLGALSTDCNMPTASVAAATRCRLSLGSGEKADFESDDESIAVFDADELENDTSSSDGESNVHGRPPPRILELN", "OBSERVED": "soluble"}
{"SEQUENCE RECORD": "MSNFEKKYILELNDALSHLNHNSTSFDLLKVLISWLSNDIVIDKFKILGYDFSKYIEMNPDDYPVEKSILNREEIIYLKNNIYRKISSGNFKFQYFVQYIRDILEYLFIEHIERVCPYCEWGEMQKLEEQNTHETVYLCTQCGCAFYNDNSQFLLKTPLTIPMKRDEFK", "OBSERVED": "not soluble"}
{"SEQUENCE RECORD": "MNSVGFYGKLAGRGDFVSRGLPNTFVEPWDAWLASGMRASQDELGAAWLDAYLTSPLWRFAIAPGLLGGEAVTGVVMPSIDRVGRYFPLTVACLLPANADLGGLVGGDDGWFEQVESLLLSTLEPEAEVEAFEQAVAQLPAPPCGPRIEQSLISGNLLRSEAVTPAQRLAALAQHACDGASHWWGRGSARISAGLMRYQGLPPAPAFGRFLTGEGEVIPLFPGIPG", "OBSERVED": "soluble"}
{"SEQUENCE RECORD": "YNPIDNIQNATNRRNTVLANMVDDEKLSQADADSAAGVDMASRLVDTYQGTGDDYRYPSYFDAVIEEATKTYGLSEDEIVKNGY", "OBSERVED": "not soluble"}

Value of soluble on expression in E. coli reported for the sequence `MMEDGNYIINPWVYTDRMGMYRILLEETAMYFAKYGPENEQNLLWGLPLQFGWQYQSGRLADPTGMTDCGNELNESLCVSVDSWWADINYYLSVIPFLAAVDSGITGISPNQITILPPPKDQMRFCYNVSDCQSAVPGTMNRWRDFFQYMQLNSSDFDGLLNYLWEAHASSLDYPTSAFGDRYNFYSEKEANFEENWAIAVNYLAAARLPTTQNRTYSFQRGLPPRVLVDTDIAPFIPDFTPLQNEVLVSLKLLGDTDRNSGSLSLTLWENLMSTKLARTLFLKAFEEFLVTSS` is soluble

Value of soluble on expression in E. coli reported for the sequence `MGSDKIHHHHHHMAKADLDKDPFDVASMFDDVGKNYDLTNTVLSFGQDRVWRKRTRQRLDLKPGEKVLDLAAGTAVSTVELAKSGAFCVACDFSQGMLAAGKDRDVSKVVGDGMQLPFADNSFDAVTISYGLRNIHDFRAGLKEMARVTKPGGRLTVAEFSTPVIPVFGTVYKEYLMRLLPQAARAVSSNPEAYIYLADSIRAWPSQAELAREINQNGWSDCGWQNLTFGIVALHSAIKPEN` is not soluble

Value of soluble on expression in E. coli reported for the sequence `MPESTNFTEEITQWVESLPNWGKAAVAGGVALAVYIPYKFMATRPRKSPLNENWKPDVVYLYQFPRARLLPNLSPFCMKVETWLRMSDITYEIPPCSLSTRSQEGTLPFVELNGKEYYDSSFILRDIDQVIKHTSLDDHLSAEQKATSRAFEAMSEKSLAISACYYRMENVEKMLDQFDPKLFGIFGFLFKLIGSRTYVSALLRRITGSDIGFHSREDIINIGSEDLKAISKYLGNKHYFHGFKPTKVDACIFSHLCQIYYAPYTSEHRDLIDGECKNLAEYVERIKNRFYPDWDDVTTKFSTDTSNWKKRHVARNGNGKH` is not soluble
